Attribution: patent US20230364070A1

molecular target: Ba/F3 cells with EGFR exon 20 NPG Ins D770_N771 (Homo sapiens, UniProt P00533, INS770NPG); construct: expressed in transfected cells; host or cells: Ba/F3 (murine pro-B cells), retroviral transduction, puromycin selection, IL3-independent pool; test: EGFR activity: Ba/F3 cell viability (CellTiter-Glo, 72 h), EGFR exon 20 NPG insertion; format: cell-based; details: EGFR exon 20 NPG Ins D770_N771, cell viability, read-out: BaF3 NPG IC50
Sequence (P00533 with tags, fused parts or gaps INS770NPG): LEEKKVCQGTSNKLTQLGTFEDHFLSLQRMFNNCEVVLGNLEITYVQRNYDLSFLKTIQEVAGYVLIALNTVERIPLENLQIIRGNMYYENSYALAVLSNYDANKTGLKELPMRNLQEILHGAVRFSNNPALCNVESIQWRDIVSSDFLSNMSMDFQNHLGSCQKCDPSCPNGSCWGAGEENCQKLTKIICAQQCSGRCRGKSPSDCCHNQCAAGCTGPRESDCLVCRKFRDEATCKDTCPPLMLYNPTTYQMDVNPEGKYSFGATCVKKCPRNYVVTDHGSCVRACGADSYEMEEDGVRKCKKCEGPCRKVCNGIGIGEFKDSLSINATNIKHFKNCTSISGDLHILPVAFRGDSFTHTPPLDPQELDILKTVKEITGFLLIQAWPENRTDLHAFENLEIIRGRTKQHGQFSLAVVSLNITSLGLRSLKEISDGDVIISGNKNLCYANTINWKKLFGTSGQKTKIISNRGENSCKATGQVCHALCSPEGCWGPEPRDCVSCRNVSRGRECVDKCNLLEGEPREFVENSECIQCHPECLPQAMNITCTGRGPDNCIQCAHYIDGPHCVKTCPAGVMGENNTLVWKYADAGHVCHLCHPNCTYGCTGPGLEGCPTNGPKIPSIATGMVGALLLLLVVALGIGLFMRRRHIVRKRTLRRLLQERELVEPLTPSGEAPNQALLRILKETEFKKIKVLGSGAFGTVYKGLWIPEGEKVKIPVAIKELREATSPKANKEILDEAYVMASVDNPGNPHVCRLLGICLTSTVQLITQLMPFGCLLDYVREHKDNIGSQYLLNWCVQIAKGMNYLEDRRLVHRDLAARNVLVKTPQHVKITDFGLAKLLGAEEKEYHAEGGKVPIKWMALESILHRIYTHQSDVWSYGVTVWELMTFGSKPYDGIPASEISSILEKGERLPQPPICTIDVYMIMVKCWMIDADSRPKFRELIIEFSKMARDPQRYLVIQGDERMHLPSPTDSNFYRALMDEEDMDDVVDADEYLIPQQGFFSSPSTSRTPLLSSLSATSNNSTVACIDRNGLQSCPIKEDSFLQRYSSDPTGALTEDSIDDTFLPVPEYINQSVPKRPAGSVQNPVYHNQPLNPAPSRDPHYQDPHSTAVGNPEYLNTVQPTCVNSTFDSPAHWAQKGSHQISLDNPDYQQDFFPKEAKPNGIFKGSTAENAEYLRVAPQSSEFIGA
Assign IC50 to each entry below.

Find IC50 (Ba/F3 cells with EGFR exon 20 NPG Ins D770_N771 (Homo sapiens, UniProt P00533, INS770NPG)) for the entry Cc1c(F)cccc1Nc1c(-c2ccncc2C#CC23CC(CN2C(=O)/C=C/CN(C)C)C3)[nH]c2c1C(=O)NCC2 < 0.1 µM

One more compound: COc1c(Cl)cccc1Nc1c(-c2ccncc2C#C[C@@]2(C)CCCN2C(=O)/C=C/CN2CC(F)(F)C2)[nH]c2c1C(=O)NCC2 0.1 to 1 µM

One more compound: COc1c(F)cccc1Nc1c(-c2ccncc2OCc2ccnn2C)[nH]c2c1C(=O)NCC2 > 1 µM

One more compound: CC#CC(=O)N1CCOC[C@@H]1COc1cnccc1-c1[nH]c2c(c1Nc1cccc(F)c1OC)C(=O)NCC2 > 1 µM

One more compound: CCc1c(F)cccc1Nc1c(-c2ccncc2OC[C@@]2(C)CCN2C(=O)/C=C/CN(C)C)[nH]c2c1C(=O)NCC2 < 0.1 µM

* * *

Assign pIC50 to each entry below.
target: Ba/F3 cells with EGFR exon 20 NPG Ins D770_N771 (Homo sapiens, UniProt P00533, INS770NPG); assay: EGFR activity: Ba/F3 cell viability (CellTiter-Glo, 72 h), EGFR exon 20 NPG insertion; conditions: EGFR exon 20 NPG Ins D770_N771, cell viability, read-out: BaF3 NPG IC50
pIC50: −log10 of the molar value.

Which pIC50 reading was recorded for the compound C=CC(=O)N1CCC[C@H]1COc1cnccc1-c1[nH]c2c(c1Nc1cccc(Cl)c1OC)C(=O)NCC2 [Compound 138b] ? > 7.00

One more compound: COc1c(F)cccc1Nc1c(-c2ccncc2OCc2nccn2C)[nH]c2c1C(=O)NCC2 6.00 to 7.00

One more compound: COc1c(Cl)cccc1Nc1c(-c2ccncc2C#CC(C)(C)OC)[nH]c2c1C(=O)NCC2 > 7.00

One more compound: CCC(=O)N1CCC[C@H]1COc1cnccc1-c1[nH]c2c(c1Nc1cccc(Cl)c1OC)C(=O)NCC2 < 6.00

One more compound: COc1c(F)cccc1Nc1c(-c2ccncc2OCC2CCc3ncnn32)[nH]c2c1C(=O)NCC2 (stereo not shown) 6.00 to 7.00

One more compound: COc1c(Cl)cccc1Nc1c(-c2ccncc2C#CC2(C(F)F)CC2)[nH]c2c1C(=O)NCC2 > 7.00

One more compound: COc1c(F)cccc1Nc1c(-c2ccncc2C#C[C@]2(C)COCCN2C(=O)/C=C/CN(C)C)[nH]c2c1C(=O)NCC2 > 7.00

* * *

target: Ba/F3 cells with EGFR exon 20 ASV Ins V769_D770 (Homo sapiens, UniProt P00533, INS769ASV); assay: EGFR activity: Ba/F3 cell viability (CellTiter-Glo, 72 h), EGFR exon 20 ASV insertion; conditions: EGFR exon 20 ASV Ins V769_D770, cell viability, read-out: BaF3 ASV IC50
Sequence (P00533 with tags, fused parts or gaps INS769ASV): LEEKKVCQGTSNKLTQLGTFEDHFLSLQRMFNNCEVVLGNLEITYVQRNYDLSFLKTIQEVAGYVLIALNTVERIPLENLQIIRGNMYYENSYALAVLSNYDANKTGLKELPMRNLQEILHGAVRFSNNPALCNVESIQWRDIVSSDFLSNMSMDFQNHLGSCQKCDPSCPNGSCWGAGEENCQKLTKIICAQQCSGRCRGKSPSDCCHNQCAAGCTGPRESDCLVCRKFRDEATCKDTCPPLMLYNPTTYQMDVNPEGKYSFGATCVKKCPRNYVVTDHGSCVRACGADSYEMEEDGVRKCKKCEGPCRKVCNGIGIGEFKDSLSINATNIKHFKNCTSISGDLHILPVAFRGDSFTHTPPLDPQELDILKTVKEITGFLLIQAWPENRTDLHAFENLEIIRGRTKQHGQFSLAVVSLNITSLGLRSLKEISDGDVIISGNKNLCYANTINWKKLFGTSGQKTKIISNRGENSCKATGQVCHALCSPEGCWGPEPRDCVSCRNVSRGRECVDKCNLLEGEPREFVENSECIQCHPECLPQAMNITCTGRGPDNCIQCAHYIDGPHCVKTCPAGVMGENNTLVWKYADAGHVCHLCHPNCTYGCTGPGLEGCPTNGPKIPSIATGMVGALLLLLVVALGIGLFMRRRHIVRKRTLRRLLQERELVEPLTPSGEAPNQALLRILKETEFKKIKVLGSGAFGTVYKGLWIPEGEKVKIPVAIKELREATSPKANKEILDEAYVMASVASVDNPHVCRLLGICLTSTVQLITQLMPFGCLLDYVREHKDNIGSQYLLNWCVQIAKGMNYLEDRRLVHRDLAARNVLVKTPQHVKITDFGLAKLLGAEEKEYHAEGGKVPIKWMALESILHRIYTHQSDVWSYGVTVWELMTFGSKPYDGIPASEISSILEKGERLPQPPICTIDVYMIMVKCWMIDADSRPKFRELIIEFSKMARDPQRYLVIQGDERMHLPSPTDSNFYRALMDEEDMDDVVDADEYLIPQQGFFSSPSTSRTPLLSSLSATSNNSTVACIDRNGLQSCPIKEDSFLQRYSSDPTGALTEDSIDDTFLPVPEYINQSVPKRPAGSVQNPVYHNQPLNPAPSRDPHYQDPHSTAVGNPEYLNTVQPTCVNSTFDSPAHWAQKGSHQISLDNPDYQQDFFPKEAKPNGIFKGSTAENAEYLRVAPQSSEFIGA
metric.name: IC50

Which IC50 reading was recorded for the molecule COc1c(F)cccc1Nc1c(-c2ccncc2C#CC(C)(C)NC(=O)/C=C/CN2CCOCC2)[nH]c2c1C(=O)NCC2 ? 100 to 1000 nM

One more molecule: COc1c(Cl)cccc1Nc1c(-c2ccncc2C#C[C@]2(NC(=O)/C=C/CN(C)C)CCOC2)[nH]c2c1C(=O)NCC2 < 100 nM

One more molecule: CC#CC(=O)N1CC[C@@H]1COc1cnccc1-c1[nH]c2cc[nH]c(=O)c2c1Nc1cccc(Cl)c1OC < 100 nM

One more molecule: COc1c(F)cccc1Nc1c(-c2ccncc2OCc2csc3nccn23)[nH]c2c1C(=O)NCC2 > 1000 nM

One more molecule: COc1c(Cl)cc(F)cc1Nc1c(-c2ccncc2C#C[C@@]2(C)CCCN2C(=O)C#CCN(C)C)[nH]c2c1C(=O)NCC2 < 100 nM

One more molecule: C=CC(=O)N1CCOC[C@]1(C)C#Cc1cnccc1-c1[nH]c2c(c1Nc1cccc(F)c1OC)C(=O)NCC2 < 100 nM

One more molecule: Cc1c(F)cccc1Nc1c(-c2ccncc2C#C[C@@]2(C)CCCN2C(=O)/C=C/CN(C)C)[nH]c2c1C(=O)NCC2 < 100 nM

One more molecule: COc1c(F)cccc1Nc1c(-c2ccncc2C#CC(C)(C)NC(=O)/C=C/CN[C@H]2CCOC2)[nH]c2c1C(=O)NCC2 100 to 1000 nM

One more molecule: COc1c(Cl)cccc1Nc1c(-c2ccncc2C#CC2CCCC2)[nH]c2c1C(=O)NCC2 < 100 nM

One more molecule: COc1c(F)cccc1Nc1c(-c2ccncc2C#C[C@@]2(C)COCCN2C(=O)/C=C/CN(C)C)[nH]c2c1C(=O)NCC2 < 100 nM

One more molecule: COc1c(F)cccc1Nc1c(-c2ccncc2C#CC(C)(C)NC(=O)/C=C/CN[C@@H]2CCOC2)[nH]c2c1C(=O)NCC2 100 to 1000 nM

One more molecule: COc1c(F)cccc1Nc1c(-c2ccncc2C#C[C@H]2CCC[C@H]2OC)[nH]c2c1C(=O)NCC2 < 100 nM

One more molecule: COc1c(Cl)cccc1Nc1c(-c2ccncc2C#CC2CC(F)(F)C2)[nH]c2c1C(=O)NCC2 100 to 1000 nM

One more molecule: C=CC(=O)N1[C@@H](C#Cc2cnccc2-c2[nH]c3c(c2Nc2cccc(F)c2OC)C(=O)NCC3)C[C@@H]2C[C@@H]21 < 100 nM

One more molecule: COc1c(F)cccc1Nc1c(-c2ccncc2OCc2cn3ccccc3n2)[nH]c2c1C(=O)NCC2 < 100 nM

One more molecule: COc1c(F)cccc1Nc1c(-c2ccncc2OCc2ccnn2C)[nH]c2c1C(=O)NCC2 > 1000 nM

One more molecule: C=CC(=O)NC1(C#Cc2cnccc2-c2[nH]c3c(c2Nc2cccc(Cl)c2OC)C(=O)NCC3)CN(C)C1 100 to 1000 nM

One more molecule: C=CC(=O)NC1(C#Cc2cnccc2-c2[nH]c3c(c2Nc2cccc(F)c2OC)C(=O)NCC3)CC2(COC2)C1 100 to 1000 nM

One more molecule: CC#CC(=O)N1CC[C@@]1(C)COc1cnccc1-c1[nH]c2c(c1Nc1cccc(F)c1OC)C(=O)NCC2 100 to 1000 nM

One more molecule: CC#CC(=O)N1CCC[C@]1(C)C#Cc1cnccc1-c1[nH]c2c(c1Nc1cc(F)cc(Cl)c1OC)C(=O)NCC2 < 100 nM

One more molecule: C=CC(=O)N1CC2CC1(C#Cc1cnccc1-c1[nH]c3c(c1Nc1cccc(F)c1C)C(=O)NCC3)C2 < 100 nM

One more molecule: COc1c(F)cccc1Nc1c(-c2ccncc2OCc2ccccn2)[nH]c2c1C(=O)NCC2 < 100 nM

One more molecule: C=CC(=O)N1[C@@H](COc2cnccc2-c2[nH]c3c(c2Nc2cccc(Cl)c2OC)C(=O)NCC3)C[C@H]1C < 100 nM

One more molecule: C=CC(=O)N1[C@H](C#Cc2cnccc2-c2[nH]c3c(c2Nc2cccc(Cl)c2OC)C(=O)NCC3)CC[C@@H]1C < 100 nM

One more molecule: C=CC(=O)N1CC[C@@H]1COc1cnccc1-c1[nH]c2c(c1Nc1cccc(Cl)c1OC)C(=O)NCC2 [Compound 145a] < 100 nM

One more molecule: C=CC(=O)N[C@@]1(C#Cc2cnccc2-c2[nH]c3c(c2Nc2cccc(F)c2C)C(=O)NCC3)CCOC1 < 100 nM

One more molecule: COc1c(Cl)cccc1Nc1c(-c2ccncc2C#C[C@@]2(NC(=O)/C=C/CN(C)C)CCOC2)[nH]c2c1C(=O)NCC2 < 100 nM

One more molecule: COc1c(F)cccc1Nc1c(-c2ccncc2OCC2CCn3ccnc32)[nH]c2c1C(=O)NCC2 (stereo not shown) 100 to 1000 nM
